Ref: PubChem BioAssay

Below, each entry is listed with its recorded nuclei count.
# experimental protocol: reduction of polyQ htt aggregates in cells – imaging, exon1htt(103Q)mCFP cells, high-content imaging, primary screen (AID 483);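 note: compound exposure lasted 3 days before fixation; percent of the per-plate median nuclei count of sample wells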
# experimental setup: exon1htt(103Q)mCFP cell line, aggregate imaging, at 2 µM; measured here: cell count, toxicity
test readout: nuclei count (%)

[[record]]
compound = "O=C(COC(=O)c1ccccc1C(=O)c1ccccc1)c1ccco1"
recorded_result = 89.2

[[record]]
compound = "CCC(=O)OC1(C#CCOc2ccc(OC)cc2)CCN(C)CC1"
recorded_result = 113

[[record]]
compound = "CCOC(=O)C1CCN(C(=O)Nc2ccc3nc(C)c(C)nc3c2)CC1"
recorded_result = 84.8

[[record]]
compound = "O=C(CCCn1c(=O)[nH]c2ccsc2c1=O)N1CCN(c2ccccn2)CC1"
recorded_result = 97.2

[[record]]
compound = "COc1cccc(NC(=O)CSc2nnc(Cc3cccn3C)n2-c2ccc(F)cc2)c1"
recorded_result = 85.3

[[record]]
compound = "O=C(NCCN1CCOCC1)c1ccc(CS(=O)(=O)Cc2ccccc2F)o1"
recorded_result = 94.3

[[record]]
compound = "O=c1c2[nH]c3cccc(Cl)c3c2ncn1CCN1CCCCC1"
recorded_result = 89

[[record]]
compound = "CCn1c(SCC(=O)Nc2cc(C)on2)nc2sc3c(c2c1=O)CCCC3"
recorded_result = 118

[[record]]
compound = "COc1ccccc1N(C)S(=O)(=O)c1ccc(C(=O)NC2=NCCS2)cc1"
recorded_result = 95.4

[[record]]
compound = "COc1cc2c(cc1OC)-c1cc(OCc3cccnc3)nc(=O)n1CC2"
recorded_result = 96.1

[[record]]
compound = "COc1ccc(C(C)NC(=O)c2ccoc2C)cc1OC (stereo not drawn)"
recorded_result = 105

[[record]]
compound = "CCOC(OCC)P(=O)(C(C)C)C(C)C"
recorded_result = 93.4

[[record]]
compound = "O=C(CSc1nnc(-c2ccco2)n1CC1CCCO1)NC1CCCC1 (stereo not drawn)"
recorded_result = 101

[[record]]
compound = "CCOC(=O)N1CCN(S(=O)(=O)c2cc(C)c(C)cc2C)CC1"
recorded_result = 99.3

[[record]]
compound = "Cc1ccc(C)c(CSc2nnc(CCN)o2)c1"
recorded_result = 65.3

[[record]]
compound = "CC(C)(C)c1ccc2c(c1)OCC(C(=O)O)O2 (stereo not drawn)"
recorded_result = 110

[[record]]
compound = "Cc1cc(C(=O)COC(=O)CCc2nc3ccccc3s2)c(C)n1C"
recorded_result = 108

[[record]]
compound = "COc1ccccc1OCc1ccc(C(=O)N2CCN(C(=O)c3ccco3)CC2)cc1"
recorded_result = 98.6

[[record]]
compound = "Cc1cc(=O)oc2ccc(OCC(=O)N3CCC(C)CC3)cc12"
recorded_result = 103

[[record]]
compound = "c1ccc(-c2nc3cnccn3c2Nc2ccc3c(c2)OCCO3)cc1"
recorded_result = 101

[[record]]
compound = "Cn1c(=O)n(C)c2cc(NC(=O)C(F)(F)F)ccc21"
recorded_result = 96.5

[[record]]
compound = "CCN1CCN(CCCNC(=O)c2cc3sccc3n2CC)CC1"
recorded_result = 105

[[record]]
compound = "COc1ccc(C2C(C#N)=C(C)NC3=C2C(=O)CC(C)(C)C3)c(OC)c1 (stereo not drawn)"
recorded_result = 70.9


----------
# experimental protocol: inhibitors of larval lipid processing in zebrafish, primary screen, whole organism, PED6 fluorescence, gall bladder and intestine (AID 686);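 note: larvae 5 to 7 days old with five fish per well; signal comes from phospholipase A2 cleavage of quenched PED6 carried via bile; overnight exposure to compound and PED6 before scoring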
# experimental setup: Zebrafish larvae PED6 lipid processing, fluorescence scoring; screened at 20 µM (by protocol)
The source made the active and inactive calls.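 The calls were made as follows: active = a full or partial loss of lipid-probe fluorescence in the fish gall bladder, intestine or both, judged by eye; inactive = no fluorescence loss, or compound toxic to the fish.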
Classes used: 1 (yes) for active, 0 (no) for inactive

[[record]]
compound = "O=C1NC(=O)C(CC(=O)N(c2ccccc2)C2(C(=O)NC3CCCC3)CCCCC2)N1 (stereo not given)"
assigned_class = "0 (no)"

[[record]]
compound = "COc1ccc(OC)c(N(CC(=O)Nc2cccnc2)S(=O)(=O)c2ccc(OC)c(OC)c2)c1"
assigned_class = "0 (no)"

[[record]]
compound = "CCC(=O)Nc1nn(C)c2nc3c(C)cccc3cc12"
assigned_class = "0 (no)"

[[record]]
compound = "CN(CCNC(=O)c1ccc(N2CCCC2=O)cc1)CCc1ccccc1"
assigned_class = "0 (no)"

[[record]]
compound = "COc1ccc(N2C(=O)c3cccc4cccc(c34)C2=O)nn1"
assigned_class = "0 (no)"

[[record]]
compound = "c1cc2c(cc1C1CCCN1)OCCCO2 (stereo not given)"
assigned_class = "0 (no)"

[[record]]
compound = "Cc1nn(-c2ccccc2)c2[nH]c(C(F)(F)F)cc(=O)c12"
assigned_class = "0 (no)"

[[record]]
compound = "Cc1nc2ccc(F)cc2cc1C(=O)NCC1CCCO1 (stereo not given)"
assigned_class = "0 (no)"

[[record]]
compound = "CC(C)(C)C(=O)OCC1OC(n2cnc(C(N)=O)n2)C(O)C1O (stereo not given)"
assigned_class = "0 (no)"

[[record]]
compound = "Clc1ccc(OCc2nnc(SCCN3CCCCC3)n2Cc2ccco2)cc1"
assigned_class = "1 (yes)"

[[record]]
compound = "CC(=O)Nc1ccc(Cc2ccncc2)cc1"
assigned_class = "0 (no)"

[[record]]
compound = "CCOC(=O)c1ccc(CNC(=O)C(Cc2c[nH]c3ccccc23)NC(C)=O)o1 (stereo not given)"
assigned_class = "0 (no)"

[[record]]
compound = "CCOCC(O)CS(=O)Cc1ccccc1 (stereo not given)"
assigned_class = "0 (no)"

[[record]]
compound = "COc1cc(C)c(Br)cc1S(=O)(=O)N1CCOCC1"
assigned_class = "0 (no)"

[[record]]
compound = "CN(c1ccccc1C(=O)NCC1CCCO1)S(C)(=O)=O (stereo not given)"
assigned_class = "0 (no)"

[[record]]
compound = "COc1ccccc1-n1nnnc1SCc1cc2c(cc1Br)OCO2"
assigned_class = "0 (no)"

[[record]]
compound = "COc1ccc(C/C(O)=C(\\C#N)c2nc3ccccc3s2)cc1"
assigned_class = "0 (no)"

[[record]]
compound = "CCOC(=O)c1ccc(NC(=O)N2CCN(Cc3cccc(F)c3)CC2)cc1"
assigned_class = "0 (no)"

[[record]]
compound = "CSc1ncc(Cl)c(C(=O)Nc2ccc(S(=O)(=O)N3CCOCC3)cc2)n1"
assigned_class = "0 (no)"

[[record]]
compound = "CCCC(OC(=O)CN1C(=O)COc2ccccc21)C(=O)NC1CCCC1 (stereo not given)"
assigned_class = "0 (no)"

[[record]]
compound = "CSc1ccc(-c2cc(=O)c3ccccc3o2)cc1"
assigned_class = "0 (no)"

[[record]]
compound = "O=C(CSc1nnnn1-c1ccccc1)Nc1ccc(Cl)cc1"
assigned_class = "0 (no)"

[[record]]
compound = "COc1ccc(S(=O)(=O)NCCSCc2ccco2)cc1Cl"
assigned_class = "0 (no)"

[[record]]
compound = "CC1CCCC(C)N1CCNC(=O)C1CCN(S(=O)(=O)N2CCCCC2)CC1 (stereo not given)"
assigned_class = "0 (no)"

[[record]]
compound = "O=C(Nc1ccccc1)N(CCCN1CCOCC1)Cc1cc2cc3c(cc2[nH]c1=O)OCCO3"
assigned_class = "0 (no)"

[[record]]
compound = "O=C(Nc1nnc(SCC(=O)N2CCCCC2)s1)C1CCCCC1"
assigned_class = "0 (no)"

[[record]]
compound = "N#CCc1ccc(NC(=O)Nc2cccc(Cl)c2)cc1"
assigned_class = "0 (no)"

[[record]]
compound = "O=C(Cn1[nH]c(=O)c2ccccc2c1=O)OCC(=O)N1CCCc2ccccc21"
assigned_class = "0 (no)"

[[record]]
compound = "COc1ccccc1CNC(=O)C(C)NS(=O)(=O)c1ccccc1 (stereo not given)"
assigned_class = "0 (no)"

[[record]]
compound = "CCOC(=O)c1nnc2ccnn2c1N"
assigned_class = "0 (no)"

[[record]]
compound = "Cc1cc(C)cc(NC(=O)CN(C)S(=O)(=O)c2cnc[nH]2)c1"
assigned_class = "0 (no)"

[[record]]
compound = "COC(=O)C1C2C=CC3(CN(CC4CCCO4)C(=O)C13)O2 (stereo not given)"
assigned_class = "0 (no)"

[[record]]
compound = "Cc1ccc(S(=O)(=O)N2CCN(C(=O)CSc3nc4ccccc4c(=O)[nH]3)CC2)c(C)c1"
assigned_class = "0 (no)"

[[record]]
compound = "CCOC(=O)N1CCN(C(=O)CN(Cc2ccccc2)S(=O)(=O)c2ccc(OC)c(C)c2)CC1"
assigned_class = "0 (no)"

[[record]]
compound = "O=S(=O)(c1cccc2c(S(=O)(=O)N3CCCC3)cccc12)N1CCCC1"
assigned_class = "0 (no)"

[[record]]
compound = "Brc1ccc2ncnc(Nc3ccc(N4CCOCC4)cc3)c2c1"
assigned_class = "0 (no)"

[[record]]
compound = "O=C(NC1CCCCCC1)c1cc(S(=O)(=O)N2CCC3(CC2)OCCO3)ccc1F"
assigned_class = "0 (no)"

[[record]]
compound = "Cc1ccc(CN2CCN(C(=O)C3CCC3)CC2)cc1"
assigned_class = "0 (no)"

[[record]]
compound = "Cn1c(=O)[nH]c(=O)c2c1nc(N1CCOCC1)n2CC(O)COc1ccc2ccccc2c1 (stereo not given)"
assigned_class = "0 (no)"

[[record]]
compound = "CC1CN(C(=O)CSc2ncnc3sccc23)CC(C)O1 (stereo not given)"
assigned_class = "0 (no)"

[[record]]
compound = "O=C(c1cc2nc(-c3ccco3)cc(C(F)(F)F)n2n1)N1CCN(c2ccccn2)CC1"
assigned_class = "0 (no)"

[[record]]
compound = "CN1C(=O)c2oc3ccccc3c(=O)c2C1c1ccccn1 (stereo not given)"
assigned_class = "0 (no)"

[[record]]
compound = "COc1cccc(CN2C(=O)C3(C(C#N)=C(N)OC4=C3C(=O)CCC4)c3ccccc32)c1 (stereo not given)"
assigned_class = "0 (no)"

[[record]]
compound = "CCn1cnc2sc(C(=O)Nc3ccc4c(c3)OCO4)c(C)c2c1=O"
assigned_class = "0 (no)"

[[record]]
compound = "COc1cc(CO)cc(-c2cc(CO)cc(OC)c2OC)c1OC"
assigned_class = "0 (no)"

